Target: T1, extracellular domain of human IL-4Rα (residues 26–232), C-terminal 6× His (human, UniProt P24394)
T1 construct: human interleukin-4 receptor alpha subunit, extracellular domain, residues 26-232; Subcloned into the pSecTag2A vector; N-glycosylated (~45 kDa, ~26 kDa after PNGase F); also called wild-type IL-4Rα; soluble IL-4Rα; source: HEK293F, transiently transfected, purified (Ni-NTA); not shown: His6, C-terminal, kept
T1 sequence (P24394 26-232): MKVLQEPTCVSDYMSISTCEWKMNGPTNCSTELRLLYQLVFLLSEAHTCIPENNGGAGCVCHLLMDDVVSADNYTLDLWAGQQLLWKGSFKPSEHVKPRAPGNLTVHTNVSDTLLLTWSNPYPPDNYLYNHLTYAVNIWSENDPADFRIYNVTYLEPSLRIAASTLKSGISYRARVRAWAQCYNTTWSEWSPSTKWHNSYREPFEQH
Test: BLI; OctetRED96; Ab (1 μg/mL) captured on anti-human IgG Fc capture (AHC) biosensors at low density (0.6 to 0.8 nm), soluble monomeric IL-4Rα as analyte; 25 °C, PBS pH 7.4, 0.02% Tween 20; association 300 s, dissociation 600-900 s; 1:1 binding model
Conditions: both partners purified

# binder, Kd (nM)
measured = [
    ("4R34.1.17, human IgG1 (antibody, V domains shown) VH: EVQLLESGGGLVQPGGSLRLSCAASGFTFSNYAMSWVRQAPGKGLEWVSAITSSGRSIYYADSVKGRFTISRDNSKNTLYLQMNSLRAEDTAVYYCARVHRAFDYWGQGTLVTVSS VL: QSVLTQPPSASGTPGQRVTISCSGSTKQMHNYQFNWYQQLPGTAPKLLIYADSHRPSGVPDRFSGSKSGTSASLAISGLRSEDEADYYCGTWDYSLSGYVLGGGTKLTVL", 0.179),
    ("4R34.2, human IgG1 (antibody, V domains shown) VH: EVQLLESGGGLVQPGGSLRLSCAASGFTFSNYAMSWVRQAPGKGLEWVSAITSSGANIYYADSVKGRFTISRDNSKNTLYLQMNSLRAEDTAVYYCARVHRAFDYWGQGTLVTVSS VL: QSVLTQPPSASGTPGQRVTISCSGSSSNIGSNTFNWYQQLPGTAPKLLIYADSHRPSGVPDRFSGSKSGTSASLAISGLRSEDEADYYCGTWDYSLRGYVLGGGTKLTVL", 0.853),
    ("4R34.19, human IgG1 (antibody, V domains shown) VH: EVQLLESGGGLVQPGGSLRLSCAASGFTFSNYAMSWVRQAPGKGLEWVSAITSSGGNIYYADSVKGRFTISRDNSKNTLYLQMNSLRAEDTAVYYCARVHRAFDYWGQGTLVTVSS VL: QSVLTQPPSASGTPGQRVTISCSGSSSNIGSNTFNWYQQLPGTAPKLLIYADSHRPSGVPDRFSGSKSGTSASLAISGLRSEDEADYYCGYWDYSLSGYVLGGGTKLTVL", 0.532),
]
